Target: T1, 4H967-bH
T1 chain: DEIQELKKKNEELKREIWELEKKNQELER
Assay: two-hybrid library CCNG1;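 further: natural log of median RNA to DNA barcode read ratio; higher means stronger binding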
quantity.measured: interaction score
// no unit string in output, number only

Consider the reported interaction score for these binders:
DKIQELKKENEELERKIWELKKEIQELER [4H2729-bH] | 0.548
DENQELEKENEELKRKIWELKKEIQELER [4H1257-bH] | -1.63
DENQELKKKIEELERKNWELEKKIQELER [4H1845-bH] | -0.511
DENQELEKKIEELKRENWELKKEIQELER [4H1369-bH] | -0.723
DKIQELKKENEELEREIWELKKEIQELER [4H2697-bH] | 0.26

// returns reported interaction score for input DKIQELEKKNEELEREIWELKKEIQELKR [4H2442-bH]
0.424

What does the data say about its interaction score? Entry: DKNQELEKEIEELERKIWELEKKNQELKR [4H3112-bH]
1.34

Given the entry DEIQELKKENEELKREIWELKKKIQELER [4H717-bH] , report its measured interaction score.
-0.767

Name the reported interaction score value associated with the binder DEIQELEKKIEELKREIWELKKENQELER [4H331-bH]
-0.299

Fill blank: measured interaction score of the binder DEIQELEKKIEELKRENWELEKEIQELKR [4H338-bH] is ____.
0.908

Fill in the blank: the reported interaction score of DKNQELKKKIEELEREIWELEKENQELER [4H3843-bH] is ____.
-0.0277

Which interaction score value belongs to DENQELEKENEELERKIWELKKEIQELER [4H1193-bH] ?
-0.174

Taken from paper PMC10397247.
